Origin of measurements: the supplement of paper PMC11061612

- Test system: C2BBe1 (Colorectal Carcinoma)
- ASSAY_COMMENT: Bliss excess, mean over the matrix (fraction); higher = more synergy
REPORTED_METRIC: Bliss excess
Would you mind answering with just the numeric figure?

Exercise: Answer with the recorded Bliss excess for the molecule listed here: CS(=O)(=O)CCNCc1ccc(-c2ccc3ncnc(Nc4ccc(OCc5cccc(F)c5)c(Cl)c4)c3c2)o1 [Lapatinib] + C[C@@H](Oc1cc(-c2cnn(C3CCNCC3)c2)cnc1N)c1c(Cl)ccc(F)c1Cl [Crizotinib] (first compound max 10 µM, 7x7, partner max 10 µM)
Solution: -0.018

Exercise: Respond only with Bliss excess recorded for COc1nnc2ccc(N3CCC(c4ccc(OCCN5CCN(C)C(=O)[C@H]5C)cc4)CC3)nn12 [AZD5153] + Cc1c2c(nn1C)CSCc1cc(n(C)n1)CSc1cc(c3ccccc3c1)OCCCc1c(C(=O)O)n(C)c3c-2c(Cl)ccc13 [AZD5991] (first compound max 1 µM, 7x7, partner max 1 µM)
Solution: -0.041

Exercise: Quote Bliss excess reported for CCN(CCO)CCCOc1ccc2c(Nc3cc(CC(=O)Nc4cccc(F)c4)[nH]n3)ncnc2c1 [AZD2811] + O=C(c1cc(Cc2n[nH]c(=O)c3ccccc23)ccc1F)N1CCN(C(=O)C2CC2)CC1 [Olaparib] (first compound max 1 µM, 7x7, partner max 10 µM) please.
Solution: -0.0112

Exercise: # return recorded Bliss excess for entry Cn1cnc2c(F)c(Nc3ccc(Br)cc3Cl)c(C(=O)NOCCO)cc21 [Selumetinib] + CC(C)n1c(=O)n(C)c2cnc3cc(F)c(-c4ccc(OCCCN5CCCCC5)nc4)cc3c21 [AZD1390] (first compound max 10 µM, 7x7, partner max 0.3 µM)
Solution: -0.05

Exercise: Return the recorded Bliss excess value; entry: Cc1c2c(nn1C)CSCc1cc(n(C)n1)CSc1cc(c3ccccc3c1)OCCCc1c(C(=O)O)n(C)c3c-2c(Cl)ccc13 [AZD5991] + CCN(CCO)CCCOc1ccc2c(Nc3cc(CC(=O)Nc4cccc(F)c4)[nH]n3)ncnc2c1 [AZD2811] (first compound max 1 µM, 7x7, partner max 1 µM)
Solution: -0.0093

Exercise: Report Bliss excess for CN(C)CCCOc1ccc(-c2ccc3ncc4c(c3c2)n(C2CCOCC2)c(=O)n4C)cn1 [AZD0156] + O=C(c1cc(Cc2n[nH]c(=O)c3ccccc23)ccc1F)N1CCN(C(=O)C2CC2)CC1 [Olaparib] (first compound max 3 µM, partner max 3 µM)
Solution: -0.0428

Exercise: Give me measured Bliss excess, please, for this molecule: COc1nnc2ccc(N3CCC(c4ccc(OCCN5CCN(C)C(=O)[C@H]5C)cc4)CC3)nn12 [AZD5153] + CCN(CCO)CCCOc1ccc2c(Nc3cc(CC(=O)Nc4cccc(F)c4)[nH]n3)ncnc2c1 [AZD2811] (first compound max 1 µM, 7x7, partner max 1 µM)
Solution: -0.0364

###

- System: SK-MEL-24 (Melanoma)
- ASSAY_COMMENT: Bliss excess, mean over the matrix (fraction); higher = more synergy
REPORTED_METRIC: Bliss excess
Just the number.

Exercise: Determine its reported Bliss excess: Cc1c2c(nn1C)CSCc1cc(n(C)n1)CSc1cc(c3ccccc3c1)OCCCc1c(C(=O)O)n(C)c3c-2c(Cl)ccc13 [AZD5991] + Cn1cnc2c(F)c(Nc3ccc(Br)cc3Cl)c(C(=O)NOCCO)cc21 [Selumetinib] (first compound max 1 µM, 7x7, partner max 3 µM)
Solution: 0.0006

Exercise: Please list Bliss excess recorded for the compound CC(=O)c1c(C)c2cnc(Nc3ccc(N4CCNCC4)cn3)nc2n(C2CCCC2)c1=O [Palbociclib] + CC1(C)CCC(CN2CCN(c3ccc(C(=O)NS(=O)(=O)c4ccc(NCC5CCOCC5)c([N+](=O)[O-])c4)c(Oc4cnc5[nH]ccc5c4)c3)CC2)=C(c2ccc(Cl)cc2)C1 [Venetoclax] (first compound max 10 µM, 7x7, partner max 1 µM)
Solution: -0.0586

###

- Test system: BT-474 (Breast Carcinoma)
- ASSAY_COMMENT: Bliss excess, mean over the matrix (fraction); higher = more synergy
REPORTED_METRIC: Bliss excess

Exercise: Give me measured Bliss excess, please, for this compound: CC(=O)c1c(C)c2cnc(Nc3ccc(N4CCNCC4)cn3)nc2n(C2CCCC2)c1=O [Palbociclib] + CC1(C)CCC(CN2CCN(c3ccc(C(=O)NS(=O)(=O)c4ccc(NCC5CCOCC5)c([N+](=O)[O-])c4)c(Oc4cnc5[nH]ccc5c4)c3)CC2)=C(c2ccc(Cl)cc2)C1 [Venetoclax] (first compound max 10 µM, 7x7, partner max 1 µM)
Solution: -0.0444

Exercise: Provide measured Bliss excess value, entry: NC1(C(=O)N[C@@H](CCO)c2ccc(Cl)cc2)CCN(c2ncnc3[nH]ccc23)CC1 [Capivasertib] + Cn1cnc2c(F)c(Nc3ccc(Br)cc3Cl)c(C(=O)NOCCO)cc21 [Selumetinib] (first compound max 10 µM, 7x7, partner max 10 µM)
Solution: 0.0509

Exercise: For COc1nnc2ccc(N3CCC(c4ccc(OCCN5CCN(C)C(=O)[C@H]5C)cc4)CC3)nn12 [AZD5153] + CN(CC[C@H](CSC1=CC=CC=C1)NC2=C(C=C(C=C2)S(=O)(=O)NC(=O)C3=CC=C(C=C3)N4CCC(CC4)[C@H](C5=CC=CC=C5C6=CC=C(C=C6)Cl)O)S(=O)(=O)C(F)(F)F)CCO [AZD4320] (first compound max 1 µM, 7x7, partner max 1 µM) , write its Bliss excess.
Solution: 0.0941

###

Would you kindly list combination Emax for each of these compounds?
- System: MDA-MB-175-VII (Breast Carcinoma)
- ASSAY_COMMENT: combination Emax (second highest fraction inhibited in the dose matrix, 72 h); higher = more inhibition; extreme values may be limits of the assay

Exercise: Determine its reported combination Emax: Cn1cnc2c(F)c(Nc3ccc(Br)cc3Cl)c(C(=O)NOCCO)cc21 [Selumetinib] + C[C@@H]1COCCN1C2=NC(=NC(=C2)C3(CC3)[S@](=N)(=O)C)C4=C5C=CNC5=NC=C4 [AZD6738] (first compound max 10 µM, 7x7, partner max 10 µM)
Solution: 0.432

Exercise: # return recorded combination Emax for entry CN(C)CCCOc1ccc(-c2ccc3ncc4c(c3c2)n(C2CCOCC2)c(=O)n4C)cn1 [AZD0156] + CCN(CCO)CCCOc1ccc2c(Nc3cc(CC(=O)Nc4cccc(F)c4)[nH]n3)ncnc2c1 [AZD2811] (first compound max 1 µM, 7x7, partner max 1 µM)
Solution: 0.208

###

- System: SW1463 (Colorectal Carcinoma)
- ASSAY_COMMENT: Bliss excess, mean over the matrix (fraction); higher = more synergy
Field: Bliss excess. Provide a value for each of the molecules that follow.
Respond using a number only.

Exercise: In one line, give reported Bliss excess of the entry CN(CCO)CC[C@H](CSc1ccccc1)Nc1ccc(S(=O)(=O)NC(=O)c2ccc(N3CCC([C@@H](O)c4ccccc4-c4ccc(Cl)cc4)CC3)cc2)cc1S(=O)(=O)C(F)(F)F [AZD4320] + Nc1ccn([C@@H]2O[C@H](CO)[C@@H](O)C2(F)F)c(=O)n1 [Gemcitabine] (first compound max 1 µM, 7x7, partner max 0.3 µM) .
Solution: -0.0192

Exercise: Answer with the recorded Bliss excess of Cc1c2c(nn1C)CSCc1cc(n(C)n1)CSc1cc(c3ccccc3c1)OCCCc1c(C(=O)O)n(C)c3c-2c(Cl)ccc13 [AZD5991] + C[C@@H](Nc1cc(F)cc(F)c1)c1cc(C(=O)N(C)C)cc2c(=O)cc(N3CCOCC3)oc12 [AZD8186] (first compound max 1 µM, 7x7, partner max 3 µM) only.
Solution: -0.0398

Exercise: State, in one line, measured Bliss excess of CN(CCO)CC[C@H](CSc1ccccc1)Nc1ccc(S(=O)(=O)NC(=O)c2ccc(N3CCC([C@@H](O)c4ccccc4-c4ccc(Cl)cc4)CC3)cc2)cc1S(=O)(=O)C(F)(F)F [AZD4320] + CS(=O)(=O)CCNCc1ccc(-c2ccc3ncnc(Nc4ccc(OCc5cccc(F)c5)c(Cl)c4)c3c2)o1 [Lapatinib] (first compound max 1 µM, 7x7, partner max 10 µM)
Solution: 0.105

###

- Tested on: CAL-85-1 (Breast Carcinoma)
- ASSAY_COMMENT: Bliss excess, mean over the matrix (fraction); higher = more synergy
Provide the reported Bliss excess of each item.
Returns: the value as a bare number; no unit string appended.

Exercise: Give Bliss excess for the following molecule: CCN(CCO)CCCOc1ccc2c(Nc3cc(CC(=O)Nc4cccc(F)c4)[nH]n3)ncnc2c1 [AZD2811] + O=C(c1cc(Cc2n[nH]c(=O)c3ccccc23)ccc1F)N1CCN(C(=O)C2CC2)CC1 [Olaparib] (first compound max 1 µM, 7x7, partner max 10 µM)
Solution: -0.0246

Exercise: Look up and state reported Bliss excess for C=CCn1c(=O)c2cnc(Nc3ccc(N4CCN(C)CC4)cc3)nc2n1-c1cccc(C(C)(C)O)n1 [AZD1775] + C[C@@H]1COCCN1C2=NC(=NC(=C2)C3(CC3)[S@](=N)(=O)C)C4=C5C=CNC5=NC=C4 [AZD6738] (first compound max 1 µM, partner max 10 µM)
Solution: -0.0511

Exercise: Kindly indicate its recorded Bliss excess. Item: Cn1cnc2c(F)c(Nc3ccc(Br)cc3Cl)c(C(=O)NOCCO)cc21 [Selumetinib] + CC(C)n1c(=O)n(C)c2cnc3cc(F)c(-c4ccc(OCCCN5CCCCC5)nc4)cc3c21 [AZD1390] (first compound max 10 µM, 7x7, partner max 0.3 µM)
Solution: -0.0039

Exercise: Look up and report measured Bliss excess for this entry: COc1cccc(OCCCN)c1-c1cc(Nc2cnc(C#N)cn2)n[nH]1 [Prexasertib] + CN(C)CCCOc1ccc(-c2ccc3ncc4c(c3c2)n(C2CCOCC2)c(=O)n4C)cn1 [AZD0156] (first compound max 1 µM, 7x7, partner max 1 µM)
Solution: -0.0157

Exercise: Note Bliss excess for the molecule shown: CC(=O)c1c(C)c2cnc(Nc3ccc(N4CCNCC4)cn3)nc2n(C2CCCC2)c1=O [Palbociclib] + Cn1cnc2c(F)c(Nc3ccc(Br)cc3Cl)c(C(=O)NOCCO)cc21 [Selumetinib] (first compound max 10 µM, 7x7, partner max 10 µM)
Solution: -0.0218

Exercise: Look up and state reported Bliss excess for NC1(C(=O)N[C@@H](CCO)c2ccc(Cl)cc2)CCN(c2ncnc3[nH]ccc23)CC1 [Capivasertib] + CC(=O)c1c(C)c2cnc(Nc3ccc(N4CCNCC4)cn3)nc2n(C2CCCC2)c1=O [Palbociclib] (first compound max 10 µM, 7x7, partner max 10 µM)
Solution: -0.0019

Exercise: Please give measured Bliss excess of the following entry: Cc1cc2ncnn2cc1Nc1ncc2c(n1)n(C1CCOCC1)c(=O)n2C [AZD7648] + O=C(c1cc(Cc2n[nH]c(=O)c3ccccc23)ccc1F)N1CCN(C(=O)C2CC2)CC1 [Olaparib] (first compound max 10 µM, 7x7, partner max 10 µM)
Solution: -0.057

Exercise: Report measured Bliss excess; entry is C=CCn1c(=O)c2cnc(Nc3ccc(N4CCN(C)CC4)cc3)nc2n1-c1cccc(C(C)(C)O)n1 [AZD1775] + Nc1ccn([C@@H]2O[C@H](CO)[C@@H](O)C2(F)F)c(=O)n1 [Gemcitabine] (first compound max 1 µM, partner max 0.3 µM)
Solution: 0.0733
